# targetOfAssay: human plasma kallikrein (activated with factor XIIa) (human, UniProt P03952 20-638)
# Sequence (P03952 20-638 limits assumed): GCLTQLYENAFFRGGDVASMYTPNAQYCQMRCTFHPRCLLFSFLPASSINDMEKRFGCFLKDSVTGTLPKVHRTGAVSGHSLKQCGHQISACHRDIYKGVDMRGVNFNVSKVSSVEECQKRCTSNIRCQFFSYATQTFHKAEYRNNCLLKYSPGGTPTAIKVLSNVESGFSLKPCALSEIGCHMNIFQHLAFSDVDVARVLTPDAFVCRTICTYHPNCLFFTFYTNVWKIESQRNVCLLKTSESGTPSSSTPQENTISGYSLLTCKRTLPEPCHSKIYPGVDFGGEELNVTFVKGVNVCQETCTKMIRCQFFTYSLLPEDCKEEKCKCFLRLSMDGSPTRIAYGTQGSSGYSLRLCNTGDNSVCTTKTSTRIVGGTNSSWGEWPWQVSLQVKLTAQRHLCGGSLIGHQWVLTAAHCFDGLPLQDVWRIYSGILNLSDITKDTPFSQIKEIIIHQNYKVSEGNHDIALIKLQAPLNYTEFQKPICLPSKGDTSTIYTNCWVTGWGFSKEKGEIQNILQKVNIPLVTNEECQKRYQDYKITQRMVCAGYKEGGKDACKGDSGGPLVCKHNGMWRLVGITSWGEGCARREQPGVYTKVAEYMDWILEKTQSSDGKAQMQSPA
# runDescription: cell-based or functional assay
*1 amine or outer side, *2 acyl side, *3 side chain or, on linkers, in order; H or OH if unused. Bridges are numbered along the chain shown (N, C = ends). TBMB = c1c(C[*:1])cc(C[*:3])cc1C[*:2]
We begin with a simple list: items and their reported IC50 (nM), residual enzyme activity.

Sample records with IC50 (nM), residual enzyme activity:
H-ACSDRFRNCPLWSGTCG-NH2 (linker 2-9-16 via TBMB; SMILES CC(C)C[C@@H]1NC(=O)[C@@H]2CCCN2C(=O)[C@@H]2CSCc3cc(cc(c3)CSC[C@@H](C(=O)NCC(N)=O)NC(=O)[C@H]([C@@H](C)O)NC(=O)CNC(=O)[C@H](CO)NC(=O)[C@H](Cc3c[nH]c4ccccc34)NC1=O)CSC[C@H](NC(=O)[C@H](C)N)C(=O)N[C@@H](CO)C(=O)N[C@@H](CC(=O)O)C(=O)N[C@@H](CCCNC(=N)N)C(=O)N[C@@H](Cc1ccccc1)C(=O)N[C@@H](CCCNC(=N)N)C(=O)N[C@@H](CC(N)=O)C(=O)N2) [TBMB modified synthetic peptide PK2 (bi-cyclic peptide)] = 28.6 nM
H-ACSDRFRNCPLWSGTCG-NH2 (cysteine pairing not given here) [linear synthetic peptide PK2 (not TBMB modified)] = > 10000 nM
H-ACSTERRYCPIEIFPCG-NH2 (cysteine pairing not given here) [linear synthetic peptide PK4 (not TBMB modified)] = 7180 nM
H-ACSDRFRNCPADEALCG-NH2 (linker 2-9-16 via TBMB, Chemically synthesized 17-mer reacted with TBMB; also called conjugate PK15; peptide conjugate PK15) [TBMB modified peptide PK15 (bi-cyclic peptide)] = 1.7 nM
H-ACSTERRYCPIEIFPCG-NH2 (linker 2-9-16 via TBMB; SMILES CC[C@H](C)[C@@H]1NC(=O)[C@H](CCC(=O)O)NC(=O)[C@H]([C@@H](C)CC)NC(=O)[C@@H]2CCCN2C(=O)[C@@H]2CSCc3cc(cc(c3)CSC[C@@H](C(=O)NCC(N)=O)NC(=O)[C@@H]3CCCN3C(=O)[C@H](Cc3ccccc3)NC1=O)CSC[C@H](NC(=O)[C@H](C)N)C(=O)N[C@@H](CO)C(=O)N[C@@H]([C@@H](C)O)C(=O)N[C@@H](CCC(=O)O)C(=O)N[C@@H](CCCNC(=N)N)C(=O)N[C@@H](CCCNC(=N)N)C(=O)N[C@@H](Cc1ccc(O)cc1)C(=O)N2) [TBMB modified synthetic peptide PK4 (bi-cyclic peptide)] = 33 nM

Moving on to the next binder.
Record request: IC50 (nM), residual enzyme activity value, item H-ACSDRFRNCPADEALCG-NH2 (cysteine pairing not given here) [linear synthetic peptide PK15 (not TBMB modified)] > 10000 nM
